# Test system: human peripheral blood lymphocytes (PBL)
# procedure-summary: BrdU incorporation proliferation assay in human PBL
# Format: cell-based
Record form. Attribute: Fold Increase in proliferation over proliferation in untreated cells. Fill in for each entry.

These recorded examples may help you get a feel for the data.
[[record]]
substance = "Mut #3: 23 C-terminal amino acids of the T101 peptide: DKQLISKAVWWTFFLPSTLWERK (listed as Homo sapiens)"
reported_result = "2.2-2.8 Fold"

[[record]]
substance = "Mut #5: amino acids 36 to 48 of the T101 peptide: AVWWTFFLPSTLW (listed as Homo sapiens)"
reported_result = "2-2.2 Fold"

[[record]]
substance = "Mut #4: 8 C-terminal amino acids of the T101 peptide: PSTLWERK (Table 1 prints PSTLTWERK) (listed as Homo sapiens)"
reported_result = "1.1-1.3 Fold"

[[record]]
substance = "Mut #6: amino acids 36 to 51 of the T101 peptide in the reverse order: KREWLTSPLFFTWWVA (listed as Homo sapiens)"
reported_result = "2-2.4 Fold"

[[record]]
substance = "Mut #2: amino acids 6 to 28 of the T101 peptide: SGEPVQSSGTKDMRSKSDSKRVS (listed as Homo sapiens)"
reported_result = "1.4-1.6 Fold"


Lab note: next substance to report on.
[in] Request: Fold Increase in proliferation over proliferation in untreated cells, test system human peripheral blood lymphocytes (PBL), entry Mut #1: 13 C-terminal amino acids of the T101 peptide: WTFFLPSTLWERK (listed as Homo sapiens)
[out] 2.5-3 Fold

Source of measurements: patent US8071716B2
